tested on: RXF 393; assay: Cytotoxicity against Homo sapiens (human) RXF393 assessed as cell growth at 10 uM after 48 hr by SRB assay relative to control; format: functional; conditions: RXF 393, 48 h, read-out: Activity
OUTCOME_MEASURE: growth at 10 µM (%)

{"columns": ["COMPOUND", "MEAS_VALUE"],
 "data": [
  ["CNc1nnc(-c2sc3nnc(-c4ccccc4)c(-c4ccccc4)c3c2O)s1", 103],
  ["CSc1nnc(-c2sc3nnc(-c4ccccc4)c(-c4ccccc4)c3c2O)o1", 82.6],
  ["Oc1c(-c2nnc(SCc3ccccc3)o2)sc2nnc(-c3ccccc3)c(-c3ccccc3)c12", 90],
  ["CC1=NN(C(=O)c2sc3nnc(-c4ccccc4)c(-c4ccccc4)c3c2O)C(=O)C1", 95.6],
  ["CC(=O)Oc1c(C2=NN(C(C)=O)C(c3ccc(F)cc3)O2)sc2nnc(-c3ccccc3)c(-c3ccccc3)c12 (stereo unspecified)", 88],
  ["Oc1c(-c2nnc(-c3ccccc3)o2)sc2nnc(-c3ccccc3)c(-c3ccccc3)c12", 85.6],
  ["CCOC(=O)c1c(Nc2ccc(S(=O)(=O)Nc3nccs3)cc2)nnc(-c2ccccc2)c1-c1ccccc1", 120],
  ["Oc1c(-c2n[nH]c(=S)o2)sc2nnc(-c3ccccc3)c(-c3ccccc3)c12", 109],
  ["CCOC(=O)c1c(Nc2ccc(S(N)(=O)=O)cc2)nnc(-c2ccccc2)c1-c1ccccc1", 109],
  ["Oc1c(-c2nnc(-c3ccc(Cl)cc3)o2)sc2nnc(-c3ccccc3)c(-c3ccccc3)c12", 72.3],
  ["CC(=O)Oc1c(C2=NN(C(C)=O)C(c3ccccc3[N+](=O)[O-])O2)sc2nnc(-c3ccccc3)c(-c3ccccc3)c12 (stereo unspecified)", 93.5]
]}

---

tested on: HOP-62; experiment: Cytotoxicity against Homo sapiens (human) HOP62 assessed as cell growth at 10 uM after 48 hr by SRB assay relative to control; type: functional; conditions: HOP-62, 48 h, read-out: Activity
OUTCOME_MEASURE: growth at 10 µM (%)

{"columns": ["MOLECULE", "MEAS_VALUE"],
 "data": [
  ["Oc1c(-c2n[nH]c(=S)o2)sc2nnc(-c3ccccc3)c(-c3ccccc3)c12", 99.7],
  ["CNc1nnc(-c2sc3nnc(-c4ccccc4)c(-c4ccccc4)c3c2O)s1", 115],
  ["CC1=NN(C(=O)c2sc3nnc(-c4ccccc4)c(-c4ccccc4)c3c2O)C(=O)C1", 82.8],
  ["Oc1c(-c2nnc(-c3ccc(Cl)cc3)o2)sc2nnc(-c3ccccc3)c(-c3ccccc3)c12", 51.2],
  ["CSc1nnc(-c2sc3nnc(-c4ccccc4)c(-c4ccccc4)c3c2O)o1", 71.1],
  ["Oc1c(-c2nnc(-c3ccccc3)o2)sc2nnc(-c3ccccc3)c(-c3ccccc3)c12", 73.7],
  ["CCOC(=O)c1c(Nc2ccc(S(N)(=O)=O)cc2)nnc(-c2ccccc2)c1-c1ccccc1", 108],
  ["CCOC(=O)c1c(Nc2ccc(S(=O)(=O)Nc3nccs3)cc2)nnc(-c2ccccc2)c1-c1ccccc1", 117],
  ["CC(=O)Oc1c(C2=NN(C(C)=O)C(c3ccccc3[N+](=O)[O-])O2)sc2nnc(-c3ccccc3)c(-c3ccccc3)c12 (stereo unspecified)", 109],
  ["CC(=O)Oc1c(C2=NN(C(C)=O)C(c3ccc(F)cc3)O2)sc2nnc(-c3ccccc3)c(-c3ccccc3)c12 (stereo unspecified)", 121],
  ["Oc1c(-c2nnc(SCc3ccccc3)o2)sc2nnc(-c3ccccc3)c(-c3ccccc3)c12", 105]
]}
